- System: RPMI-8226 leukemia
- ASSAY REMARKS: NCI tumour cell line growth inhibition, 48 h

- COMPOUND: "CN(C)/C(=N/C(=O)Nc1ccccc1)SCc1ccccc1"
  EXPERIMENTAL SYSTEM: "RPMI-8226 leukemia"
  MODIFIER: ">"
  TGI, µM: 100
- COMPOUND: "Fc1ccccc1C1SCC2=Nc3ccccc3CN21 (stereo not given)"
  EXPERIMENTAL SYSTEM: "RPMI-8226 leukemia"
  MODIFIER: ">"
  TGI, µM: 100
- COMPOUND: "COC(=O)C1CC(C=O)=C(SC)N1 (stereo not given)"
  EXPERIMENTAL SYSTEM: "RPMI-8226 leukemia"
  MODIFIER: ">"
  TGI, µM: 50
- COMPOUND: "CC(=O)OCC1OC(O[C@@H]2C[C@H]3C(C)(C)[C@H](OC(C)=O)CC[C@]3(C)[C@H]3CC[C@@H]4[C@]5(CC[C@@]4(C)[C@@]32C)O[C@@H]([C@H](O)C(C)(C)O)C[C@@H]5C)C(O)C(O)C1O (stereo not given in full)"
  EXPERIMENTAL SYSTEM: "RPMI-8226 leukemia"
  MODIFIER: "="
  TGI, µM: 19
- COMPOUND: "NC(=S)N1N=C(c2ccc3c(c2)CCC3)CC1c1ccccc1 (stereo not given)"
  EXPERIMENTAL SYSTEM: "RPMI-8226 leukemia"
  MODIFIER: "="
  TGI, µM: 51.7
- COMPOUND: "COc1cc(C=NCC(=O)CSC(c2ccccc2)c2ccccc2)cc(OC)c1OC"
  EXPERIMENTAL SYSTEM: "RPMI-8226 leukemia"
  MODIFIER: "="
  TGI, µM: 39.9
- COMPOUND: "CCCC/C(C)=N/NC(N)=S"
  EXPERIMENTAL SYSTEM: "RPMI-8226 leukemia"
  MODIFIER: ">"
  TGI, µM: 100
- COMPOUND: "Fc1cc(Nc2ccc3c(OCCCN4CCOCC4)cccc3n2)ccc1Cl"
  EXPERIMENTAL SYSTEM: "RPMI-8226 leukemia"
  MODIFIER: "="
  TGI, µM: 6.97
- COMPOUND: "CC(C)S(=O)(=O)n1c(N)nc2ccc(/C(=N/O)c3ccccc3)cc21"
  EXPERIMENTAL SYSTEM: "RPMI-8226 leukemia"
  MODIFIER: "="
  TGI, µM: 31.8

###

# TGI values compiled below
- Test system: MALME-3M melanoma
- ASSAY REMARKS: NCI tumour cell line growth inhibition, 48 h
PROPERTY LABEL: TGI

- COMPOUND: "Cc1nc2ccccc2n1CCc1nc2ccccc2[nH]1"
  EXPERIMENTAL SYSTEM: "MALME-3M melanoma"
  PROPERTY LABEL: "TGI"
  RESULT: "> 100 µM"
- COMPOUND: "CN(c1ccccc1)c1c(-c2ccccc2)c(=O)oc2c1ccc1occc12"
  EXPERIMENTAL SYSTEM: "MALME-3M melanoma"
  PROPERTY LABEL: "TGI"
  RESULT: "> 100 µM"
- COMPOUND: "Cc1cc(I)cc(CN(C)CCCCN2CCCC2)c1O"
  EXPERIMENTAL SYSTEM: "MALME-3M melanoma"
  PROPERTY LABEL: "TGI"
  RESULT: "36.1 µM"
- COMPOUND: "COCCn1cc(-c2csc(-c3c[nH]c4ccc(F)cc34)n2)c2cccnc21"
  EXPERIMENTAL SYSTEM: "MALME-3M melanoma"
  PROPERTY LABEL: "TGI"
  RESULT: "> 100 µM"
- COMPOUND: "O=c1c2cc(Cl)ccc2n2nnc3ccc(NCCNCCO)c1c32"
  EXPERIMENTAL SYSTEM: "MALME-3M melanoma"
  PROPERTY LABEL: "TGI"
  RESULT: "5.67 µM"
- COMPOUND: "COc1ccccc1OCC(COC(=O)Nc1ccc(C)cc1)OC(=O)Nc1ccc(C)cc1 (stereo unspecified)"
  EXPERIMENTAL SYSTEM: "MALME-3M melanoma"
  PROPERTY LABEL: "TGI"
  RESULT: "48.3 µM"

###

- Test system: CAKI-1 renal
- ASSAY REMARKS: NCI tumour cell line growth inhibition, 48 h
# TGI values compiled below

- COMPOUND: "COc1cc(/C=C2\\N=C(c3ccccc3)N(c3ccc(C(=O)c4ccccc4)cc3N3C(=O)/C(=C/c4cc(OC)c(OC)c(OC)c4)N=C3c3ccccc3)C2=O)cc(OC)c1OC"
  TGI: "> 100 µM"
- COMPOUND: "Cn1c(=O)n2n(c1=O)C1C(=CC2)C2C=CC1n1c(=O)n(C)c(=O)n12 (stereo unspecified)"
  TGI: "> 100 µM"
- COMPOUND: "N#CC(C#N)=C/C=C/c1cccc([N+](=O)[O-])c1"
  TGI: "4 µM"
- COMPOUND: "Cc1cc(C#Cc2ccccc2)ccc1-n1c(/C=C/c2ccc(O)cc2)nc2ccccc2c1=O"
  TGI: "36.5 µM"
- COMPOUND: "CCOC(=O)c1c(C)n(CCN2CCN(C)CC2)c2ccc(OC)cc12"
  TGI: "> 100 µM"
- COMPOUND: "CC1=NN(C(=O)Cc2ccccc2)C(=O)/C1=C\\c1cccc(O)c1"
  TGI: "> 100 µM"

###

# TGI values compiled below
- System: PC-3 prostate
- ASSAY REMARKS: NCI tumour cell line growth inhibition, 48 h
PROPERTY LABEL: TGI

- COMPOUND: "Clc1cccc(Cl)c1C1ON=C(c2ccccc2)N1C12CC3CC(CC(C3)C1)C2 (stereo not given)"
  EXPERIMENTAL SYSTEM: "PC-3 prostate"
  RESULT: "29.9 µM"
- COMPOUND: "C[N+](C)(C)c1nc(N)nc2c1ncn2C1OC(CO)C(O)C1O (stereo not given)"
  EXPERIMENTAL SYSTEM: "PC-3 prostate"
  RESULT: "> 100 µM"
- COMPOUND: "CNc1ccc([N+](=O)[O-])cc1C(=O)N1CCC[C@H]1CO"
  EXPERIMENTAL SYSTEM: "PC-3 prostate"
  RESULT: "> 100 µM"
- COMPOUND: "C=C1C[C@]23CC[C@@H]4C(CO)(CO)CC(=O)C[C@]4(C)[C@@H]2C(O)C[C@H]1C3 (stereo not given in full)"
  EXPERIMENTAL SYSTEM: "PC-3 prostate"
  RESULT: "> 100 µM"
- COMPOUND: "O=[N+]([O-])c1ccc(-c2nc3ccccc3o2)cc1"
  EXPERIMENTAL SYSTEM: "PC-3 prostate"
  RESULT: "> 100 µM"

###

# TGI values compiled below
- Tested on: SF-268 CNS
- ASSAY REMARKS: NCI tumour cell line growth inhibition, 48 h
PROPERTY LABEL: TGI

- COMPOUND: "NC(=NC1C2CC3CC(C2)CC1C3)Nc1ccc(I)cc1 (stereo not given)"
  EXPERIMENTAL SYSTEM: "SF-268 CNS"
  RESULT: "17.8 µM"
- COMPOUND: "COc1ccc2c3c([nH]c2c1)[C@H]1C[C@H]2[C@H](C[C@@H](O)[C@H](OC)[C@H]2C(=O)O)CN1CC3"
  EXPERIMENTAL SYSTEM: "SF-268 CNS"
  RESULT: "> 100 µM"
- COMPOUND: "Nc1nc(Cl)cc(NCCCCCCCCCCNc2cc(Cl)nc(N)n2)n1"
  EXPERIMENTAL SYSTEM: "SF-268 CNS"
  RESULT: "> 100 µM"
- COMPOUND: "OCC1=C[C@@](COCc2ccccc2)(OCc2ccccc2)[C@@H](OCc2ccccc2)[C@@H]1OCc1ccccc1"
  EXPERIMENTAL SYSTEM: "SF-268 CNS"
  RESULT: "> 100 µM"
- COMPOUND: "S=C1OC2C3C4CC5C3C(O1)C1C5C4C21 (stereo not given)"
  EXPERIMENTAL SYSTEM: "SF-268 CNS"
  RESULT: "> 100 µM"

###

# TGI values compiled below
- System: SNB-78 CNS
- ASSAY REMARKS: NCI tumour cell line growth inhibition, 48 h

- COMPOUND: "Cc1ccc(NC(=O)CCC(=O)C(C#N)c2ccc(Cl)cc2)cc1C (stereo unspecified)"
  TGI: "> 100 µM"
- COMPOUND: "O=C1CCCC2COc3ccc(O)c1c32 (stereo unspecified)"
  TGI: "> 100 µM"
- COMPOUND: "COc1ccc2c(c1)[n+]([O-])c(-c1ccc(Cl)c(Cl)c1)c(N)[n+]2[O-]"
  TGI: "> 100 µM"
- COMPOUND: "CC(C)S(=O)(=O)n1c(N)nc2ccc(/C(=N/O)c3ccccc3)cc21"
  TGI: "> 100 µM"
- COMPOUND: "Cc1cc(C(=O)NCCN(C)C)c2nc3ccccc3nc2c1"
  TGI: "47.2 µM"
- COMPOUND: "CC1=NN(C(=O)Cc2ccccc2)C(=O)/C1=C\\c1cccc(O)c1"
  TGI: "> 100 µM"
